Parameter: IC50. Scope: all listed entries.
- tested_on: BRD4 BD2 (Homo sapiens)
- assay_info: AlphaScreen binding assay, BRD4 Bromodomain 2

Some solved entries appear below for comparison.
For CC(=O)N1c2ccc(-c3ccc(N(C)S(C)(=O)=O)cc3)cc2N(C(=O)C2CC2)C[C@@H]1C , what is its reported IC50?
50 to 500 nM

For CC(=O)N1c2ccc(-c3ccc(Cl)cc3)cc2N(C(=O)c2ccco2)C[C@@H]1C , what is its reported IC50?
50 to 500 nM

For COC(=O)N1c2ccc(-c3ccc(N4CCCS4(=O)=O)cc3)cc2N(C(=O)OC(C)C)C[C@@H]1C , what is its reported IC50?
> 500 nM

Now look at this entry.
For CC(=O)N1c2ccc(-c3ccc(-c4cc(C(=O)O)[nH]n4)cc3)cc2N(C(=O)c2ccco2)CC1C (stereo not shown) , what is its reported IC50?
< 50 nM

* * *

- tested_on: BRD4 BD1 (Homo sapiens, UniProt O60885)
- assay_info: AlphaScreen binding assay, BRD4 Bromodomain 1
pIC50: −log10 of the molar value.
Parameter: pIC50. Scope: all listed entries.

For COc1ccccc1OC(=O)N1C[C@H](C)N(C(C)=O)c2ccc(-c3cnn(C4COC4)c3)cc21 [Example I-3] , what is its reported pIC50?
6.00 to 7.00

For CC(=O)N1c2ccc(-c3cnn(Cc4ccncc4)c3)cc2N(C(=O)OC(C)C)C[C@@H]1C [Example I-117] , what is its reported pIC50?
6.00 to 7.00

For COc1cccc(CC(=O)N2C[C@H](C)N(C(C)=O)c3ccccc32)c1 [Example I-699] , what is its reported pIC50?
< 5.00

For CC(=O)N1c2ccc(-c3cnn(CC4(F)COC4)c3)cc2N(C(=O)OC(C)C)C[C@@H]1C [Example I-133] , what is its reported pIC50?
6.00 to 7.00

For CNS(=O)(=O)c1cccc(-c2ccc3c(c2)N(C(=O)C2CC2)C[C@H](C)N3C(C)=O)c1 [Example I-1104] , what is its reported pIC50?
5.00 to 6.00

For CC(=O)N1c2ccccc2N(C(=O)C2CCCCC2)C[C@@H]1C [Example I-697] , what is its reported pIC50?
< 5.00

More entries:
For CC(=O)N1c2ccc(-c3ccc(N4CCCS4(=O)=O)c(F)c3)cc2N(C(=O)OC(C)C)C[C@@H]1C [Example I-1156] , what is its reported pIC50?
6.00 to 7.00

For CC(=O)N1c2ccc(-c3ccc(S(C)(=O)=O)cc3)cc2N(c2ncccn2)C[C@@H]1C [Example I-45] , what is its reported pIC50?
5.00 to 6.00

* * *

- tested_on: BRD4 BD2 (Homo sapiens)
- assay_info: AlphaScreen binding assay, BRD4 Bromodomain 2
pIC50: −log10 of the molar value.
measurement_label: pIC50

For CCOC(=O)N1C[C@H](C)N(C(C)=O)c2ccc(-c3cccc(S(=O)(=O)N(C)C)c3)cc21 , what is its reported pIC50?
6.30 to 7.30

For CC(=O)N1c2ccc(-c3cnn(C4COC4)c3)cc2N(C(=O)OCC2CC2(C)C)C[C@@H]1C (stereo partly drawn) , what is its reported pIC50?
6.30 to 7.30

For CC(=O)N1c2ccc(-c3cnn(Cc4ccnn4C)c3)cc2N(C(=O)OC(C)C)C[C@@H]1C , what is its reported pIC50?
6.30 to 7.30

For CC(=O)N1c2ccc(-c3cnn(Cc4ccccn4)c3)cc2N(C(=O)OC(C)C)C[C@@H]1C , what is its reported pIC50?
> 7.30

More entries:
For CC(=O)N1c2ccc(-c3ccc(C(=O)N4CC[C@H](N(C)C)C4)cc3)cc2N(C(=O)OC(C)C)C[C@@H]1C , what is its reported pIC50?
> 7.30

For CC(=O)N1c2ccc(-c3cnn(C4CS(=O)(=O)C4)c3)cc2N(C(=O)OC(C)C)C[C@@H]1C , what is its reported pIC50?
6.30 to 7.30

For CC(=O)N1c2ccc(-c3ccc(C(=O)N4CCC[C@@H](N)C4)cc3)cc2N(C(=O)OC(C)C)C[C@@H]1C , what is its reported pIC50?
6.30 to 7.30

For CC(=O)N1c2ccc(-c3cnn(CC(=O)N(C)C4CC4)c3)cc2N(C(=O)OC(C)C)C[C@@H]1C , what is its reported pIC50?
> 7.30

For CC(=O)N1c2ccccc2N(C(=O)c2ccccc2)C[C@@H]1C , what is its reported pIC50?
< 6.30

For CC(=O)N1c2ccc(-c3cccc(C(N)=O)c3)cc2N(C(=O)c2ccco2)C[C@@H]1C , what is its reported pIC50?
> 7.30

For CC(=O)N1c2ccc(-c3ccc4nccn4c3)cc2N(C(=O)c2ccco2)C[C@@H]1C , what is its reported pIC50?
< 6.30

For CC(=O)N1c2ccc(-c3cccc4ccsc34)cc2N(C(=O)c2ccco2)C[C@@H]1C , what is its reported pIC50?
< 6.30

For COC(=O)N1C[C@H](C)N(C(C)=O)c2ccc(-c3ccc(S(C)(=O)=O)cc3)cc21 , what is its reported pIC50?
6.30 to 7.30

For COC(=O)N1c2ccc(-c3cnn(C4CCOCC4)c3)cc2N(C(=O)OC(C)C)C[C@@H]1C , what is its reported pIC50?
6.30 to 7.30

For COC(=O)N1c2ccc(-c3ccc(C(=O)NCc4ncco4)cc3)cc2N(C(=O)OC(C)C)C[C@@H]1C , what is its reported pIC50?
< 6.30

* * *

- tested_on: BRD4 BD1 (Homo sapiens)
- assay_info: AlphaScreen binding assay, BRD4 Bromodomain 1
pIC50: −log10 of the molar value.
measurement_label: pIC50

Some solved entries appear below for comparison.
Please state recorded pIC50 (tested on BRD4 BD1 (Homo sapiens)) of CC(=O)N1c2ccc(-c3ccc(S(=O)(=O)CC(C)C)cc3)cc2N(C(=O)C2CCC2)C[C@@H]1C
5.00 to 6.00

Please state recorded pIC50 (tested on BRD4 BD1 (Homo sapiens)) of COc1ccc(-c2ccc3c(c2)N(C(=O)C2CCC2)C[C@H](C)N3C(C)=O)cc1NS(C)(=O)=O
5.00 to 6.00

Please state recorded pIC50 (tested on BRD4 BD1 (Homo sapiens)) of CC(=O)N1c2ccc(-c3cnn(C4CC4)c3)cc2N(c2ncc3ccccc3n2)C[C@@H]1C
6.00 to 7.00

More entries:
Please state recorded pIC50 (tested on BRD4 BD1 (Homo sapiens)) of CC(=O)N1c2ccc(-c3cnn(Cc4ccccc4)c3)cc2N(C(=O)c2ccco2)C[C@@H]1C
6.00 to 7.00

Please state recorded pIC50 (tested on BRD4 BD1 (Homo sapiens)) of CCC(C)OC(=O)N1C[C@H](C)N(C(C)=O)c2ccc(-c3ccc(S(C)(=O)=O)cc3)cc21 (stereo partly drawn)
6.00 to 7.00

Please state recorded pIC50 (tested on BRD4 BD1 (Homo sapiens)) of CC(=O)N1c2ccc(-c3ccc(OCCS(C)(=O)=O)cc3)cc2N(C(=O)OC2CCCCC2)C[C@@H]1C
6.00 to 7.00

Please state recorded pIC50 (tested on BRD4 BD1 (Homo sapiens)) of CC(=O)N1c2ccc(-c3ccc(S(=O)(=O)C4CC4)cc3)cc2N(C(=O)OC2CCOCC2)C[C@@H]1C
6.00 to 7.00

Please state recorded pIC50 (tested on BRD4 BD1 (Homo sapiens)) of CC(=O)N1c2ccc(-c3cnn(C4CCNCC4)c3)cc2N(C(=O)OC(C)C)C[C@@H]1C
6.00 to 7.00

Please state recorded pIC50 (tested on BRD4 BD1 (Homo sapiens)) of CC(=O)N1c2ccc(-c3cnn(C4COC4)c3)cc2N(C(=O)OC2CC3(COC3)C2)C[C@@H]1C
5.00 to 6.00

Please state recorded pIC50 (tested on BRD4 BD1 (Homo sapiens)) of COC(=O)N1c2ccc(-c3cnn(CCN4CCCC4=O)c3)cc2N(C(=O)OC(C)C)C[C@@H]1C
6.00 to 7.00

Please state recorded pIC50 (tested on BRD4 BD1 (Homo sapiens)) of CC(=O)N1c2ccccc2N(C(=O)Cc2ccccc2)C[C@@H]1C
< 5.00

* * *

- tested_on: BRD4 BD2 (Homo sapiens, UniProt O60885)
- assay_info: AlphaScreen binding assay, BRD4 Bromodomain 2
measurement_label: IC50

Please state recorded IC50 (tested on BRD4 BD2 (Homo sapiens, UniProt O60885)) of CC(=O)N1c2ccc(-c3ccc(S(C)(=O)=O)cc3)nc2N(C(=O)C2CC2)C[C@@H]1C [Example I-301]
> 500 nM

Please state recorded IC50 (tested on BRD4 BD2 (Homo sapiens, UniProt O60885)) of CC(=O)N1c2ccccc2N(C(=O)c2c(C)noc2C)C[C@@H]1C [Example I-768]
> 500 nM

Please state recorded IC50 (tested on BRD4 BD2 (Homo sapiens, UniProt O60885)) of CC(C)OC(=O)N1C[C@H](C)N(C(=O)C2CC2)c2ccc(-c3ccc(C(=O)N4CC[C@@H](N(C)C)C4)cc3)cc21 [Example I-564]
50 to 500 nM

Please state recorded IC50 (tested on BRD4 BD2 (Homo sapiens, UniProt O60885)) of Cc1noc(C)c1Cn1cc(-c2ccc3c(c2)N(C(=O)OC(C)C)C[C@H](C)N3C(=O)C2CC2)cn1 [Example I-617]
50 to 500 nM

Please state recorded IC50 (tested on BRD4 BD2 (Homo sapiens, UniProt O60885)) of CC(=O)N1c2ccc(-c3ccc(N(C)S(C)(=O)=O)cc3)cc2N(C(=O)OC(C)C)C[C@@H]1C [Example I-346]
50 to 500 nM

More entries:
Please state recorded IC50 (tested on BRD4 BD2 (Homo sapiens, UniProt O60885)) of CC(=O)N1c2ccc(-c3ccc(S(C)(=O)=O)cc3)cc2N(C(=O)c2ccc(N)cc2)C[C@@H]1C [Example I-986]
> 500 nM

Please state recorded IC50 (tested on BRD4 BD2 (Homo sapiens, UniProt O60885)) of CCNS(=O)(=O)c1ccc(-c2ccc3c(c2)N(C(=O)OCC)C[C@H](C)N3C(C)=O)cc1 [Example I-1137]
50 to 500 nM

Please state recorded IC50 (tested on BRD4 BD2 (Homo sapiens, UniProt O60885)) of CC(=O)N1c2ccc(-c3cnn(C4COC4)c3)cc2N(C(=O)OC2COC2)C[C@@H]1C [Example I-59]
50 to 500 nM

Please state recorded IC50 (tested on BRD4 BD2 (Homo sapiens, UniProt O60885)) of COc1cc(-c2ccc3c(c2)N(C(=O)c2ccco2)C[C@H](C)N3C(C)=O)ccn1 [Example I-863]
50 to 500 nM

Please state recorded IC50 (tested on BRD4 BD2 (Homo sapiens, UniProt O60885)) of CC(=O)N1c2ccc(-c3ccc(N)nc3)cc2N(C(=O)c2ccco2)C[C@@H]1C [Example I-295]
< 50 nM

Please state recorded IC50 (tested on BRD4 BD2 (Homo sapiens, UniProt O60885)) of CC(=O)N1c2ccc(-c3cccc(S(N)(=O)=O)c3)cc2N(C(=O)OC2CCOCC2)C[C@@H]1C [Example I-1220]
50 to 500 nM

Please state recorded IC50 (tested on BRD4 BD2 (Homo sapiens, UniProt O60885)) of CC(=O)N1c2ccc(-c3cnn(C4COC4)c3)cc2N(C(=O)OC(CF)CF)C[C@@H]1C [Example I-72]
< 50 nM
